What inhibition at 10 µM was measured for each of the following?
# Tested system: serotonin (5-HT) reuptake (Rattus norvegicus, UniProt P31652)
# Construct: synaptosomes are freshly isolated from areas of the rat brain; from tissue; host or cells: rat brain synaptosomes (P2 fraction)
# Sequence (P31652 whole entry): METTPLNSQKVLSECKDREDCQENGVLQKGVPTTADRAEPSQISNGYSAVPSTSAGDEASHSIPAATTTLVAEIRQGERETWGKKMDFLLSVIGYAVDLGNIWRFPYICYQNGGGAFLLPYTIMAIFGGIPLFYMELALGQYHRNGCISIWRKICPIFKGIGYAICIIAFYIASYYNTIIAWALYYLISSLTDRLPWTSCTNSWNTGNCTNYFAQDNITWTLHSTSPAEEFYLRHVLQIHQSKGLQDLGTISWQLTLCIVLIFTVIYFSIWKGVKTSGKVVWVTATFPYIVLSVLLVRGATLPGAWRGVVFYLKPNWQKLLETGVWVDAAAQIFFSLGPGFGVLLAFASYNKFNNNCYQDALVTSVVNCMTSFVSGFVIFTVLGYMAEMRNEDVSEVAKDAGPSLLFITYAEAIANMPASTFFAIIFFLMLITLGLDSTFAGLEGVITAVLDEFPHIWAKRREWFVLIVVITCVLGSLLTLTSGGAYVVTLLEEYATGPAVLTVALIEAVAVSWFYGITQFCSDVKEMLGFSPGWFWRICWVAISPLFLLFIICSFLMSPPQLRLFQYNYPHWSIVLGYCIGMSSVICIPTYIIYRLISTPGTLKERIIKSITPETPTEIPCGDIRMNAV
# Test description: Inhibition of serotonin (5HT) reuptake in synaptosomes from rat brain
# Format: biochemical
# Measurement context: test concentration of 10 μM; read-out: 5-HT (inhibition of reuptake of serotonin, % inhibition)
Reply with just the number (in %).

# inhibition at 10 µM (molecule: COc1cc(C)c(S(=O)(=O)N2CCCC(OCC(=O)NCCC3CCC(C(c4cccs4)N(C)C)CC3)C2)c(C)c1C (stereo not shown) ) is 95

get_value(item= COc1ccc(S(=O)(=O)N2CCCC2COCC(=O)NC2CCC(C(c3ccccc3)N(C)C)CC2)cc1 (stereo not shown) , readout=inhibition at 10 µM) returns 85

Given item COc1cc(C)c(S(=O)(=O)N2CCCC(OCC(=O)NCC3CCC(C(c4cccs4)N(C)C)CC3)C2)c(C)c1C (stereo not shown) , the value recorded as its inhibition at 10 µM is 92

The recorded inhibition at 10 µM for entry CN(C)C(c1ccccc1)C1CCC(CNC(=O)COC2CCN(S(=O)(=O)c3ccccc3)C2)CC1 (stereo not shown) equals 101

Field inhibition at 10 µM (entry CN(C)C(c1ccccc1)C1CCC(CNC(=O)COCC2CCCCN2S(=O)(=O)c2ccc(Cl)c(Cl)c2)CC1 (stereo not shown) ) reads 93

For record COc1ccc(S(=O)(=O)N2CCC(OCC(=O)NCC3CCC(C(c4ccccc4)N(C)C)CC3)C2)cc1OC (stereo not shown) the listed inhibition at 10 µM is 87

response.value for COc1cc(C)c(S(=O)(=O)N2CCC(OCC(=O)NC3CCC(C(c4cccs4)N(C)C)CC3)C2)c(C)c1 (stereo not shown) (field: inhibition at 10 µM) = 92

###

Would you mind telling me the reported B1R Ant. h [10 μM] % Inhibition of each entry?
# Tested system: human bradykinin 1 receptor (B1R) (Homo sapiens)
# Construct: expressed in transfected cells; host or cells: CHO K1 cells
# Sequence (P46663 whole entry): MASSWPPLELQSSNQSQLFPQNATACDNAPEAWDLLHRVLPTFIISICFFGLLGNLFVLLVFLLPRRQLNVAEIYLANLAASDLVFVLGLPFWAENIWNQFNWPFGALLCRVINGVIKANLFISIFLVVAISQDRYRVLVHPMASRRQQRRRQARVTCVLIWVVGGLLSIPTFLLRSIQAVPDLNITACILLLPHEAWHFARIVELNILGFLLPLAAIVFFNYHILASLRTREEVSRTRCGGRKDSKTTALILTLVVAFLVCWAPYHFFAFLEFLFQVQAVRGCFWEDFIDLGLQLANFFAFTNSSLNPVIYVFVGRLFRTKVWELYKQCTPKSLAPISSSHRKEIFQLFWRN
# Test description: Functional investigation on the human bradykinin 1 receptor (B1R), Ca2+ FLIPR assay in CHO K1 hB1R cells
# Format: cell-based
# Measurement context: B1R antagonism human; test substance 10 μM; Ca2+ FLIPR, CHO K1 hB1R cells
Entry rule: numbers only, all in %.

// recorded B1R Ant. h [10 μM] % Inhibition for CN(C)C(c1ccc(F)cc1)C1CCC(CNC(=O)COCCN(C)S(=O)(=O)c2c(Cl)cccc2Cl)CC1 (stereo not shown) : 103

So, COc1ccc(S(=O)(=O)N2CCCCC2COCC(=O)NCC2CCC(C(CCc3ccccc3)N(C)C)CC2)cc1OC (stereo not shown) [Example 570] ? Its B1R Ant. h [10 μM] % Inhibition was −18

Lab note: CN(C)C(c1cccs1)C1CCC(NC(=O)COCCN2CCN(S(=O)(=O)c3ccccc3)CC2)CC1 (stereo not shown) gave B1R Ant. h [10 μM] % Inhibition of −1

The reported value for COc1cc(C)c(S(=O)(=O)N(CCOCC(=O)NCCC2CCC(C(c3cccs3)N(C)C)CC2)Cc2ccccc2)c(C)c1C (stereo not shown) in terms of B1R Ant. h [10 μM] % Inhibition is 27

Form field B1R Ant. h [10 μM] % Inhibition, entry COc1ccc(S(=O)(=O)N2CCC(OCC(=O)NC3CCC(C(c4ccc(F)cc4)N(C)C)CC3)C2)cc1OC (stereo not shown) : −4

Lab note: CN(C)C(c1ccc(Cl)cc1)C1CCC(CNC(=O)COCCC2CCN(S(=O)(=O)c3ccccc3)CC2)CC1 (stereo not shown) gave B1R Ant. h [10 μM] % Inhibition of −20

Entry CN(C)C(c1ccc(Cl)cc1)C1CCC(CCNC(=O)COC2CCN(S(=O)(=O)c3ccccc3)CC2)CC1 (stereo not shown) , B1R Ant. h [10 μM] % Inhibition reported as 21
